test system: Male SD rats; assay: Blood pressure change after tail vein injection (mean arterial pressure); conditions: dosage 2× ED50, injection within 15 seconds, 60 min recording, rats under isoflurane
Counter-ions that a name gives are not always drawn.
property_label: +Δ % (The maximum increase rate of blood pressure)

Return +Δ % (The maximum increase rate of blood pressure) for the following compound: COC(=O)CCC(=O)OCn1cnc([C@@H](C)c2cccc(C)c2C)c1 [Compound 25-HCl]
31 ± 14%

----------
Experiment: Degradation of prodrug in rat plasma (release of dexmedetomidine, HPLC)
Assay type: in vitro ADME
Details: 37° C., 5 min
Procedure: The test prodrug was formulated as a 1 mg/mL of physiological saline solution, and then 100 μL of the prodrug solution was added to 900 μL of rat plasma. The test solution was vortexed for 30 s before incubation at 37° C. […] 100 μL of the supernatant was injected for detection by HPLC, and the concentration of dexmedetomidine was determined by an internal standard method. The degradation rate of the prodrug was calculated based on the concentration of dexmedetomidine. […]
Where a name gives a salt, the structure may show the parent alone.
Please respond with reported Degradation rate of prodrug % for every item in the list.
Quick note: give the figure in %, leave out the unit.

Return Degradation rate of prodrug % for the following molecule: CC(=O)OC(C)n1cnc([C@@H](C)c2cccc(C)c2C)c1 (stereo partly drawn) [Compound 17-HCl]
29

Return Degradation rate of prodrug % for the following molecule: COC(=O)CCC(=O)OCn1cnc([C@@H](C)c2cccc(C)c2C)c1 [Compound 25-HCl]
67

Return Degradation rate of prodrug % for the following molecule: Cc1cccc([C@H](C)c2cn(COC(=O)C3CC3)cn2)c1C [Compound 15-HCl]
87

Return Degradation rate of prodrug % for the following molecule: Cc1cccc([C@H](C)c2cn(COC(=O)OC3CCC3)cn2)c1C [Compound 14-HCl]
100

Return Degradation rate of prodrug % for the following molecule: Cc1cccc([C@H](C)c2cn(C(=O)OCC(C)C)cn2)c1C [Compound 4-HCl]
100

Return Degradation rate of prodrug % for the following molecule: CCC(=O)OCn1cnc([C@@H](C)c2cccc(C)c2C)c1 [Compound 10-HCl]
100

Return Degradation rate of prodrug % for the following molecule: Cc1cccc([C@H](C)c2cn(COC(=O)OC(C)C)cn2)c1C [Compound 7-HCl]
97

Return Degradation rate of prodrug % for the following molecule: CCOC(=O)OCn1cnc([C@@H](C)c2cccc(C)c2C)c1 [Compound 6-HCl]
96

Return Degradation rate of prodrug % for the following molecule: COC(=O)OCn1cnc([C@@H](C)c2cccc(C)c2C)c1 [Compound 13-HCl]
90

----------
experiment: Degradation of prodrug in rat plasma (release of dexmedetomidine, HPLC); format: in vitro ADME; details: 37° C., 2 min
Counter-ions that a name gives are not always drawn.
Please respond with reported Degradation rate of prodrug % for every item in the list.

Return Degradation rate of prodrug % for the following compound: CCC(=O)OCn1cnc([C@@H](C)c2cccc(C)c2C)c1 [Compound 10-HCl]
85%

Return Degradation rate of prodrug % for the following compound: Cc1cccc([C@H](C)c2cn(COC(=O)C(C)(C)C)cn2)c1C [Compound 3-HCl]
87%

Return Degradation rate of prodrug % for the following compound: CCOC(=O)COC(=O)OCn1cnc([C@@H](C)c2cccc(C)c2C)c1 [Compound 24-HCl]
24%

Return Degradation rate of prodrug % for the following compound: Cc1cccc([C@H](C)c2cn(COC(=O)OC3CC3)cn2)c1C [Compound 22-HCl]
100%

Return Degradation rate of prodrug % for the following compound: Cc1cccc([C@H](C)c2cn(COC(=O)C3CC3)cn2)c1C [Compound 15-HCl]
54%
